# assay-protocol: Pharmacokinetic assays (plasma and tumor) in nude mice xenografted with MV4-11 cells
# Format: in vivo, mouse
# reported-conditions: nude, mouse, plasma, ip, 50 mg/kg, AraC in plasma; gilteritinib 3, AraC 50, IDR 0.5 mg/kg

>  <molecule>
Nc1ccn([C@@H]2O[C@H](CO)[C@@H](O)[C@@H]2O)c(=O)n1

>  <Cmax, ng/mL>
18000

$$$$

----------
# Test system: MCL-1, BCL2L10, survivin and cPARP in MOLM-13 cells
# assay-protocol: Western blot analysis of anti-apoptotic protein expression, MOLM-13
# Type: cell-based, human
# reported-conditions: MOLM-13, 24-hour treatment; gilteritinib 30 nM, AraC 100 nM, IDR 3 nM, Aza 1000 nM
Structures can show the parent of a compound that is named as a salt.
property-label: expression of MCL-1, BCL2L10, and survivin

>  <molecule>
Nc1ccn([C@@H]2O[C@H](CO)[C@@H](O)[C@@H]2O)c(=O)n1 [AraC, Cytarabine]

>  <measured-result>
little effect

$$$$
>  <molecule>
Nc1ncn([C@@H]2O[C@H](CO)[C@@H](O)[C@H]2O)c(=O)n1 [Aza, Azacitidine]

>  <measured-result>
little effect

$$$$
>  <molecule>
CC(=O)[C@]1(O)Cc2c(O)c3c(c(O)c2[C@@H](O[C@H]2C[C@H](N)[C@H](O)[C@H](C)O2)C1)C(=O)c1ccccc1C3=O [IDR, Idarubicin hydrochloride]

>  <measured-result>
little effect

$$$$

----------
# assay-protocol: Pharmacokinetic assays (plasma and tumor) in nude mice xenografted with MV4-11 cells
# Format: in vivo, mouse
# reported-conditions: nude, mouse, plasma, iv, 3 mg/kg, azacitidine in plasma; gilteritinib 3, azacitidine 3 mg/kg; read-out: AUC24

>  <molecule>
Nc1ncn([C@@H]2O[C@H](CO)[C@@H](O)[C@H]2O)c(=O)n1 [Aza, Azacitidine]

>  <unit-annotation>
ng·h/mL

>  <AUC>
1610

$$$$

----------
# assay-protocol: Pharmacokinetic assays (plasma and tumor) in nude mice xenografted with MV4-11 cells
# Assay type: in vivo, mouse
# reported-conditions: nude, mouse, plasma, po, 3 mg/kg, gilteritinib in plasma; gilteritinib 3 mg/kg, AraC 0, IDR 0; read-out: AUC24

>  <molecule>
CCc1nc(C(N)=O)c(Nc2ccc(N3CCC(N4CCN(C)CC4)CC3)c(OC)c2)nc1NC1CCOCC1

>  <AUC, ng·h/mL>
156

$$$$

----------
# assay-protocol: Pharmacokinetic assays (plasma and tumor) in nude mice xenografted with MV4-11 cells
# Assay type: in vivo, mouse
# reported-conditions: nude, mouse, tumor, iv, 0.5 mg/kg, idarubicin in tumor; gilteritinib 0, AraC 50, IDR 0.5 mg/kg
Structures can show the parent of a compound that is named as a salt.
property-label: Tmax

>  <compound>
CC(=O)[C@]1(O)Cc2c(O)c3c(c(O)c2[C@@H](O[C@H]2C[C@H](N)[C@H](O)[C@H](C)O2)C1)C(=O)c1ccccc1C3=O [IDR, Idarubicin hydrochloride]

>  <measured-result>
4 h

$$$$

----------
# assay-protocol: Pharmacokinetic assays (plasma and tumor) in nude mice xenografted with MV4-11 cells
# Type: in vivo, mouse
# reported-conditions: nude, mouse, tumor, iv, idarubicin in tumor; gilteritinib 3, AraC 50, IDR 0.5 mg/kg
Structures can show the parent of a compound that is named as a salt.

>  <compound>
CC(=O)[C@]1(O)Cc2c(O)c3c(c(O)c2[C@@H](O[C@H]2C[C@H](N)[C@H](O)[C@H](C)O2)C1)C(=O)c1ccccc1C3=O [IDR, Idarubicin hydrochloride]

>  <Cmax>
226 ng/g

$$$$
